target: T1, Human VSIG4-L-Fc (human); assay: ligand blocking of C3b, IgG
T1 construct: also called hVSIG4-L-Fc; hVSIG4-L
T1 sequence (chain, as listed by the source limits assumed): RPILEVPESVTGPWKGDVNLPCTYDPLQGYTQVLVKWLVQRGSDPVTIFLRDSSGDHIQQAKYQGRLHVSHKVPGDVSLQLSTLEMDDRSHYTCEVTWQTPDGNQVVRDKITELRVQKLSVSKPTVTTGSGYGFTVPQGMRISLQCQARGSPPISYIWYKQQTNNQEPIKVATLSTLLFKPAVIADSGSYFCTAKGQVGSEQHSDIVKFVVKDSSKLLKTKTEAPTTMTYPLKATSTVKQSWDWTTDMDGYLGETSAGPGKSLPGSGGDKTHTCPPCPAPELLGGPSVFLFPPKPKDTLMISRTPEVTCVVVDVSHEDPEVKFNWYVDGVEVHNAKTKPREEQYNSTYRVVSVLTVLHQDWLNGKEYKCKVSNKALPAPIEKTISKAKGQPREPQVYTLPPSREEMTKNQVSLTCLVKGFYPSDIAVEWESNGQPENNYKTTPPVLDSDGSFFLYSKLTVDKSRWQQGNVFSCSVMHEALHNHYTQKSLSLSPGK

binder	Percent Blocking C3b
16E10 mouse/human chimeric IgG4 (S228P) kappa (antibody, V domains shown) VH: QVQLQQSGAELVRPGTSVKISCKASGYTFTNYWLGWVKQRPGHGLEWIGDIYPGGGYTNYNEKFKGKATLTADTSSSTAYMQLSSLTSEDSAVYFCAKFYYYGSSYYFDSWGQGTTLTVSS VL: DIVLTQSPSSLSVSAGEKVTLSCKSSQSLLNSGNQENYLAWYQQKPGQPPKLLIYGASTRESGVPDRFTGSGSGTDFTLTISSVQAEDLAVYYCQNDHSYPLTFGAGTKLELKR	33%
12A12 mouse/human chimeric IgG4 (S228P) kappa (antibody, V domains shown) VH: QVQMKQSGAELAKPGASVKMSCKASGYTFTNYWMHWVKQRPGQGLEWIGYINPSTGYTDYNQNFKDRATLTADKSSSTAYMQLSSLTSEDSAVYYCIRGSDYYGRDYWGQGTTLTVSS VL: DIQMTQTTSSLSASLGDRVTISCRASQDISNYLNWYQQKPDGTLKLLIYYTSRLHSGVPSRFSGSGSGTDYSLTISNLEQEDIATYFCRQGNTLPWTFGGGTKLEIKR	96%
13H11 mouse/human chimeric IgG4 (S228P) kappa (antibody, V domains shown) VH: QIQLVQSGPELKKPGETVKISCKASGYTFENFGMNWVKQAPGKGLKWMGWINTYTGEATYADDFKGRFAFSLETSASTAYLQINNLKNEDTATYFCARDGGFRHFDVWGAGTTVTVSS VL: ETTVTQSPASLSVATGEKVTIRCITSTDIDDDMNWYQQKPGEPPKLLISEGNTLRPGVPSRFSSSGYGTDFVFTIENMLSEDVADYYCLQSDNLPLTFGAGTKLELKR	75%
15C03 mouse/human chimeric IgG4 (S228P) kappa (antibody, V domains shown) VH: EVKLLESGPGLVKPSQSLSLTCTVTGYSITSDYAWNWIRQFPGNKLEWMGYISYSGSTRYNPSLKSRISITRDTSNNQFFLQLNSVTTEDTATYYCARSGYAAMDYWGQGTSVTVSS VL: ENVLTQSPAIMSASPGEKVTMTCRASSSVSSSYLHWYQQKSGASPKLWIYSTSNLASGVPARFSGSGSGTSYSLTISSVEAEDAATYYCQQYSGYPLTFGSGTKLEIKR	90%
15C04 mouse/human chimeric IgG4 (S228P) kappa (antibody, V domains shown) VH: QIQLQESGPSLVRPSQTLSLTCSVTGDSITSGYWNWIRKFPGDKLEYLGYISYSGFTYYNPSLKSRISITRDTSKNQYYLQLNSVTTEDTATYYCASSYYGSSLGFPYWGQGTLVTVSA VL: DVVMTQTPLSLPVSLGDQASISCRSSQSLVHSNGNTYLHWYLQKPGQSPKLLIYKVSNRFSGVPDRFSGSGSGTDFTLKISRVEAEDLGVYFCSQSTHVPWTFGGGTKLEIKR	93%
12A08 mouse/human chimeric IgG4 (S228P) kappa (antibody, V domains shown) VH: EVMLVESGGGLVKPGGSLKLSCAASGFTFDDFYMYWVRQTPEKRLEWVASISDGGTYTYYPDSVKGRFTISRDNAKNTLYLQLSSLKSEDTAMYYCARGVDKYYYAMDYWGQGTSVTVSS VL: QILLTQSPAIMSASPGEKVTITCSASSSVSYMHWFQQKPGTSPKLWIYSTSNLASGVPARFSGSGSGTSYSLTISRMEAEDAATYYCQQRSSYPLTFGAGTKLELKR	96%
